- MEASUREMENT TARGET: UniProt:P48067
- Sequence (P48067 1-652 isoform P48067-3): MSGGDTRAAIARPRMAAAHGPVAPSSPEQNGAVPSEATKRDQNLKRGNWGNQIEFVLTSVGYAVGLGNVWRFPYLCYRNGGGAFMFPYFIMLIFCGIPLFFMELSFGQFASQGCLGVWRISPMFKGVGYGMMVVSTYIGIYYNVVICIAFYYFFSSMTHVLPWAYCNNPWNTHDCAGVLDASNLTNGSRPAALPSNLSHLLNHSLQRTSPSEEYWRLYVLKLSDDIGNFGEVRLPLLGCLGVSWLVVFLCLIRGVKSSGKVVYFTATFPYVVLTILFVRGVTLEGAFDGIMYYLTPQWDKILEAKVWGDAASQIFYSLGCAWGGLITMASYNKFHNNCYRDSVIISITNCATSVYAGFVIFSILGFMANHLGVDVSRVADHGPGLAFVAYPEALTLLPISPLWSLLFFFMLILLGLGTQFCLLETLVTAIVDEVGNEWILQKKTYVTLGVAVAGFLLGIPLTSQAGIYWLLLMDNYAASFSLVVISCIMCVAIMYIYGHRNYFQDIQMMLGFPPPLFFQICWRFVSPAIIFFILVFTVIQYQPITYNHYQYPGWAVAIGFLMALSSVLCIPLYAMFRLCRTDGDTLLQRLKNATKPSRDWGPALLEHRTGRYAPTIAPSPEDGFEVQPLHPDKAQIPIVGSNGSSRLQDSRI
- ASSAY OVERVIEW: [3H]-glycine uptake into CHO cells expressing human GlyT-1B
QUANTITY NAME: Ki

{"COMPOUND": "CSCC(N)C(=O)O (stereo in doubt) [(S)-methyl-L-cysteine]", "ASSAY RESULT": "> 100 µM"}

====

- MEASUREMENT TARGET: noradrenaline (NA) uptake (Rattus norvegicus, UniProt Q63380)
- Sequence (Q63380 1-617): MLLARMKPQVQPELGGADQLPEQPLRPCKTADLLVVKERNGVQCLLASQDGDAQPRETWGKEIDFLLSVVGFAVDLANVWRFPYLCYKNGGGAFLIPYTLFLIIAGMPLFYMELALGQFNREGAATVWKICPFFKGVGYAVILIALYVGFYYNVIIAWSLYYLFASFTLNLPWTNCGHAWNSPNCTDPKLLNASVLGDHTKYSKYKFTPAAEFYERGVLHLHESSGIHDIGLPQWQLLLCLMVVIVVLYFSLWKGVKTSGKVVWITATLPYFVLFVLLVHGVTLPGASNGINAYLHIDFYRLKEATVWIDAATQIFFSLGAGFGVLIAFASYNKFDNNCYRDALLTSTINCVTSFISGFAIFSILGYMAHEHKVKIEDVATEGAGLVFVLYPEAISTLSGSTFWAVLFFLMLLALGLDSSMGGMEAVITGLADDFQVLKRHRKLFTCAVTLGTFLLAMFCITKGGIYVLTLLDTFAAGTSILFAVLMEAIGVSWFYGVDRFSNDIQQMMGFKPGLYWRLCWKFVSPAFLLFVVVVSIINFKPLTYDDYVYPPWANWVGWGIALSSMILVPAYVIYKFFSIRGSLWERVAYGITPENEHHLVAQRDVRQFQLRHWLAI
- ASSAY OVERVIEW: [3H]noradrenalin uptake into rat cortical synaptosomes
- CONDITION CONTEXT: read-out: Ki, block of noradrenaline transport

{"COMPOUND": "CSCC(N)C(=O)O (stereo in doubt) [(S)-methyl-L-cysteine]", "MEASUREMENT TARGET": "noradrenaline (NA) uptake (Rattus norvegicus, UniProt Q63380)", "Ki": "> 1 mM"}

====

- MEASUREMENT TARGET: dopamine (DA) uptake (Rattus norvegicus)
- Sequence (P23977 whole entry): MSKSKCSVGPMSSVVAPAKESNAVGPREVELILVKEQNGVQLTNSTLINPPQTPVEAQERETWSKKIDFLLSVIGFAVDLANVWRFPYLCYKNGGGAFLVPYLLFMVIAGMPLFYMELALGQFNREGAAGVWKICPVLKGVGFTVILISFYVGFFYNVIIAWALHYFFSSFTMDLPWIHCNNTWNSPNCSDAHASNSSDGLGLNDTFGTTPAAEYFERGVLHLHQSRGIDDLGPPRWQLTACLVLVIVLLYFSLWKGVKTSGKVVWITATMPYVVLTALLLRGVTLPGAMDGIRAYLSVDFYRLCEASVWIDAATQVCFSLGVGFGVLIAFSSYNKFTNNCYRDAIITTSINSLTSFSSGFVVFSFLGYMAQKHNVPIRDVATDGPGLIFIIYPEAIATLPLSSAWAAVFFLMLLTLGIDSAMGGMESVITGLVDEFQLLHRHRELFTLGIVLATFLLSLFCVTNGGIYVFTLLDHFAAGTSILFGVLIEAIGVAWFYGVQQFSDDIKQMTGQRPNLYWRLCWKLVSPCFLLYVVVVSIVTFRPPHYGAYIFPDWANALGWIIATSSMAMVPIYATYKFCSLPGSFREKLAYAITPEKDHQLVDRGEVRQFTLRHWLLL
- ASSAY OVERVIEW: [3H]dopamine uptake into rat striatal synaptosomes
pKi: −log10 of the molar value.
QUANTITY NAME: pKi

{"MOLECULE": "CSCC(N)C(=O)O (stereo in doubt) [(S)-methyl-L-cysteine]", "ASSAY RESULT": "< 3.00"}

====

- MEASUREMENT TARGET: D-serine-sensitive Na+-independent transporter in rat cortical membranes (Rattus norvegicus)
- Construct: from tissue; host or cells: rat cerebral cortex membranes (P2 synaptosomes), male Wistar rats
- Sequence (P63116 whole entry): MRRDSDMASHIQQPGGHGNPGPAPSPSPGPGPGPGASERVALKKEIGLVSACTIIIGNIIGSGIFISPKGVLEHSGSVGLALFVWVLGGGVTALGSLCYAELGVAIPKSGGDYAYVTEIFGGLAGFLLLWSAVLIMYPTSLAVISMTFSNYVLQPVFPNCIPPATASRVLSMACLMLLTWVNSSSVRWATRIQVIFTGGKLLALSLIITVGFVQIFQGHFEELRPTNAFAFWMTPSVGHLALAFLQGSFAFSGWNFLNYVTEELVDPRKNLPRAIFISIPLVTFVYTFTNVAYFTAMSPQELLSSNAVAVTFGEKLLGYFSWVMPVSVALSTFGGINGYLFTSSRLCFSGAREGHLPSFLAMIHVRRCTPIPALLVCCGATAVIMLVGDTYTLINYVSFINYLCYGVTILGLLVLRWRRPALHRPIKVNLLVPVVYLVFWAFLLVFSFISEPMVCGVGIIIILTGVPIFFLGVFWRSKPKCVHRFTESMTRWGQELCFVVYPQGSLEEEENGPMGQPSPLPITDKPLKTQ
- Sequence (Q794F9 whole entry partner): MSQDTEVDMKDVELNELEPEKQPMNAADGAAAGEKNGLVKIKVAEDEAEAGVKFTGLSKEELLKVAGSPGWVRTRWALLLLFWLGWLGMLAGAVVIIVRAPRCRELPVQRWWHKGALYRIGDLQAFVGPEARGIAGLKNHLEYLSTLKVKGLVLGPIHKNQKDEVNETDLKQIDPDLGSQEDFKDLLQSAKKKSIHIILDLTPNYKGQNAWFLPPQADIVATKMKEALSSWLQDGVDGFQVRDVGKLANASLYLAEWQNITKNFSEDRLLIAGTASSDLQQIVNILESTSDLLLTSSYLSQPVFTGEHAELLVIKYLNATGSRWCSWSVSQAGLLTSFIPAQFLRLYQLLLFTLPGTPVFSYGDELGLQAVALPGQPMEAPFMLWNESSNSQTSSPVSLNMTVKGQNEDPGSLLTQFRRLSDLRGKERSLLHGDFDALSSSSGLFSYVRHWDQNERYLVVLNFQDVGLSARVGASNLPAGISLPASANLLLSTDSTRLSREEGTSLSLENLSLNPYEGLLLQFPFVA
- ASSAY OVERVIEW: Na+-independent [3H]D-serine uptake into rat cortical membranes (synaptosomes)
- Type: biochemical
- CONDITION CONTEXT: rat cortical synaptosomes
QUANTITY NAME: inhibition of [3H]D-serine uptake (in words)

{"SMI": "N[C@@H](CSSC[C@H](N)C(=O)O)C(=O)O", "ASSAY RESULT": "Inactive"}
{"SMI": "N=C(N)NCCC[C@H](N)C(=O)O", "ASSAY RESULT": "Inactive"}
